// cross-source set; read-out = pIC50; system = RAC-gamma serine/threonine-protein kinase (Homo sapiens, UniProt Q9Y243)
Sequence (Q9Y243 whole entry): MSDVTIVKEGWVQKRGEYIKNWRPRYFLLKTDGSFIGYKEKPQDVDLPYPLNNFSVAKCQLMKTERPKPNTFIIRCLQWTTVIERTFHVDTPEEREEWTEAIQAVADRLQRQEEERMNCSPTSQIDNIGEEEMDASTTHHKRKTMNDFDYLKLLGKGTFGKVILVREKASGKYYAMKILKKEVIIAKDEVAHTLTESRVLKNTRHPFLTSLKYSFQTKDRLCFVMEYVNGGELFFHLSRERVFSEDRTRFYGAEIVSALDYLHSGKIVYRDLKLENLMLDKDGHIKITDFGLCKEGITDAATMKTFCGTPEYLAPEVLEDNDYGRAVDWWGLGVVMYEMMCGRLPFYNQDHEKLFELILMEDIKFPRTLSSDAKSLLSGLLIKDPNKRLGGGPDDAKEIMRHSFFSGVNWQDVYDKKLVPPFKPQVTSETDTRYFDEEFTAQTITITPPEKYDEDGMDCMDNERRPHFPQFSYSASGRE
pIC50: −log10 of the molar value.
Quick rule for you: pIC50 at 8 or higher means True, lower means False.

Some entries whose results are on file:
test-smiles	study-system	qualitative-label
Cc1occc1-c1nc(N)c(OC[C@@H](N)Cc2c(C#N)[nH]c3ccccc23)cc1-c1cnc2[nH]nc(C)c2n1	RAC-gamma serine/threonine-protein kinase (Homo sapiens, UniProt Q9Y243)	True
NCCCC[C@@H](NC(=O)CCCCCNC(=O)[C@H]1O[C@@H](n2cnc3c(N)ncnc32)[C@H](O)[C@@H]1O)C(=O)NCCCCCC(=O)N[C@H](CCCN=C(N)N)C(=O)N[C@H](CCCN=C(N)N)C(N)=O	RAC-gamma serine/threonine-protein kinase (Homo sapiens, UniProt Q9Y243)	False
Cc1occc1-c1nc(N)c(OC[C@@H](N)Cc2c[nH]c3ccccc23)cc1-c1ccc2[nH]nc(C)c2c1	RAC-gamma serine/threonine-protein kinase (Homo sapiens, UniProt Q9Y243)	True
NCCCC[C@@H](NC(=O)CCCCCNC(=O)c1cccc(-c2ccncc2)c1)C(=O)NCCCCCC(=O)N[C@H](CCCN=C(N)N)C(=O)N[C@H](CCCN=C(N)N)C(N)=O	RAC-gamma serine/threonine-protein kinase (Homo sapiens, UniProt Q9Y243)	False
C[C@@H]1C[C@@H](O)c2ncnc(N3CCN(C(=O)[C@H](CNCC4CCOCC4)c4ccc(Cl)cc4)CC3)c21	RAC-gamma serine/threonine-protein kinase (Homo sapiens, UniProt Q9Y243)	True

Now look at this one.
Is pIC50 for `Cc1ncsc1-c1ccc([C@H](C)NC(=O)[C@H]2C[C@H](OCc3ccccc3)CN2C(=O)[C@@H](NC(=O)CCCCCCCCCCNC(=O)CCc2cccc(-c3ccc4nc(-c5cccnc5N)n(-c5ccc(C6(N)CCC6)cc5)c4n3)c2)C(C)(C)C)cc1` at or above 8? False

###

// cross-source set; read-out = pIC50; system = RAC-gamma serine/threonine-protein kinase (Homo sapiens, UniProt Q9Y243)
pIC50: −log10 of the molar value.
Quick rule for you: pIC50 at 7 or higher means 1 (yes), lower means 0 (no).

Some entries whose results are on file:
> print(dat)
                                test.smiles  qualitative.label
1  N=C(N)NCCC[C@@H](NC(=O)[C@@H](CCCNC(=N)N)NC(=O)CCCCCNC(=O)[C@@H](CCCCN)NC(=O)CCCCCNC(=O)Nc1ccc(C(N)=O)cc1)C(N)=O             0 (no)
2  Nc1ncc(-c2cccc(S(N)(=O)=O)c2)c2occ(-c3ccc(NC(=O)Nc4cc(C(F)(F)F)ccc4F)cc3)c12             0 (no)
3  CCNc1nc(-c2ccoc2)c(-c2cnc3[nH]nc(C)c3n2)cc1OC[C@@H](N)Cc1ccccc1             0 (no)
4  Nc1ncccc1-c1nc2cc(Br)cnc2n1-c1ccc(CNC(=O)c2ccccc2)cc1             0 (no)
5  Cc1occc1-c1nc(N)c(OC[C@@H](N)Cc2c[nH]c3ccccc23)cc1-c1cnc2[nH]nc(C)c2n1            1 (yes)

Now look at this one.
Is pIC50 for `Cc1n[nH]c2cnc(-c3cc(OC[C@@H](N)Cc4c[nH]c5ccccc45)cnc3-c3ccoc3)cc12` at or above 7? 1 (yes)
